test: Eye drop formulation properties (osmolarity, viscosity, dissolved dexamethasone); format: physicochemical; conditions: aqueous eye drop suspension with γ-cyclodextrin, aqueous with cosolvent or surfactant or cyclodextrin, thermodynamic from solid; eye drop formulation of EXPERIMENT 4
readout.type: solubility at 7 days

Would you kindly share the measured solubility at 7 days for C[C@@H]1C[C@H]2[C@@H]3CCC4=CC(=O)C=C[C@]4(C)[C@@]3(F)[C@@H](O)C[C@]2(C)[C@@]1(O)C(=O)CO ?
700 to 900 µg/mL
